Measured EC50 by item
# subject.of.test: T1, human BCMA expressed on cells (human, UniProt Q02223 1-184)
# T1 construct: the cell line is named under assay; also called wildtype human BCMA
# T1 sequence: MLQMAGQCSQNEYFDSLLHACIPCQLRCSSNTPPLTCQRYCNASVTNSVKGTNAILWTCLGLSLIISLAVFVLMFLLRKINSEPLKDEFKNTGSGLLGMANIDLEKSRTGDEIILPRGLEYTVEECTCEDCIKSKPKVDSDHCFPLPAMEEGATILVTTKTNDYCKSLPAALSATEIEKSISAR
# method.summary: flow cytometry, HEK 293 cells expressing human BCMA
Just the number plus its unit, please.

552-LN1-E9 hIgG1 (antibody, V domains shown, Human-mouse chimeric antibody, human IgG1 format; also called [6]) VH: QIQLVQSGPELKKPGETVKISCKASGYTFTDYSIYWVKQAPGKGLKWMGWINTETGEPTYADDFKGRFAFSLETSASSAYLQINTLKNEDTATYFCSISYYYAMDYWGQGTSVTVSS VL: DIVLTQSPASLAVSLGQRATISCRASKSVSTSGYSFLHWYQQKPGQPPKLLIYFASNLESGVPARFSGSGSGTDFTLNIHPVEEEDAATYYCQHSRELPRTFGGGTKLEIKR; 0.65 nM
J6M0 (antibody, V domains shown, also called J6M0-hIgG1; anti-BCMA) VH: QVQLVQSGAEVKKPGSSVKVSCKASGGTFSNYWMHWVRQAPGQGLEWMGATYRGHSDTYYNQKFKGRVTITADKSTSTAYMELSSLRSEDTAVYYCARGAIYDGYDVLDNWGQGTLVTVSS VL: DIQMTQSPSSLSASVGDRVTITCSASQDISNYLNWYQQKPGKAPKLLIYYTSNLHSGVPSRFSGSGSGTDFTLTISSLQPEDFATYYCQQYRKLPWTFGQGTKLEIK; 10.1 nM
539-SP1-C8 hIgG1 (antibody, V domains shown, Human-mouse chimeric antibody, human IgG1 format; also called [2]) VH: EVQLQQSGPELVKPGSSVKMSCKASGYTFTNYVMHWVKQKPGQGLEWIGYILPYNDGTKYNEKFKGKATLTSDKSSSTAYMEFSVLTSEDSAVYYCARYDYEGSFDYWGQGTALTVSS VL: DIQMTQTTSSLSASLGDRVTISCRASQDISNYLNWYQQKPDGTVKLLMCYTSRLHSGVPSRFSGSGSGTDFSLTISNLEQEDIATYFCQQGNTFPPTFGGGTKLEIKR; 2.56 nM

Incoming: Record request: EC50 value, item 538-SP5-B10 hIgG1 (antibody, V domains shown, Human-mouse chimeric antibody, human IgG1 format) VH: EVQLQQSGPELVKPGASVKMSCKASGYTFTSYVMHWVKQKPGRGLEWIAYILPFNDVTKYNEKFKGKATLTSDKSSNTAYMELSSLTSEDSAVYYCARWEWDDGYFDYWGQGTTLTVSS VL: DAVMTQTPLSLPVSLGDQASISCRSSQSLENSNGNTYLNWYLQKPGQSPQLLIYRVSNRFSGVLDRFSGSGSGTDFTLKISRVEAEDLGVYFCLQVSHVPFTFGAGTKLELKR
Outgoing: 0.21 nM
